Quick reference for Stability at 24 hours among some compounds
- Assay Protocol: Stability determination of amidite in solvent after 24 hours (HPLC-MS, UV 254 nm)
- Type: physicochemical
- Particulars: solvent DMF; room temperature; grades 1-3, key not given
Readout Label: Stability at 24 hours

1) COc1ccc(C(OC[C@@]23CO[C@@H]([C@H](n4cnc5c(=O)[nH]c(NC(=O)C(C)C)nc54)O2)[C@@H]3O[P@]2O[C@H](c3ccccc3)[C@@H]3CCCN32)(c2ccccc2)c2ccc(OC)cc2)cc1 : 3
2) COc1ccc(C(OCC2OC(n3cnc4c(=O)[nH]c(N=CN(C)C)nc43)CC2OP2OC(c3ccccc3)C3CCCN32)(c2ccccc2)c2ccc(OC)cc2)cc1 [D-DNA G-DMF] : 3
3) COc1ccc(C(OCC23COC(C(n4cnc5c(=O)[nH]c(N=CN(C)C)nc54)O2)C3OP2OC(c3ccccc3)C3CCCN32)(c2ccccc2)c2ccc(OC)cc2)cc1 (centres unmarked) : 1
4) COc1ccc(C(OCC23COC(C(n4cc(C)c(=O)[nH]c4=O)O2)C3OP2OC(c3ccccc3)C3CCCN32)(c2ccccc2)c2ccc(OC)cc2)cc1 [L-LNA T-DMF] : 1
5) COc1ccc(C(OCC2OC(n3cc(C)c(=O)[nH]c3=O)CC2OP2OC(c3ccccc3)C3CCCN32)(c2ccccc2)c2ccc(OC)cc2)cc1 [D-DNA T-DMF] : 3

----------
- Assay Protocol: Stability determination of amidite in solvent after 24 hours (HPLC-MS, UV 254 nm)
- Assay type: physicochemical
- Particulars: solvent Dioxane; room temperature; grades 1-3, key not given
Reported Stability at 24 hours values follow for various molecules
Readout Label: Stability at 24 hours

1. COc1ccc(C(OCC2OC(n3cnc4c(=O)[nH]c(N=CN(C)C)nc43)CC2OP2OC(c3ccccc3)C3CCCN32)(c2ccccc2)c2ccc(OC)cc2)cc1 [L-DNA G-DMF] : 2
2. COc1ccc(C(OCC2OC(n3cnc4c(=O)[nH]c(N=CN(C)C)nc43)CC2OP2OC(c3ccccc3)C3CCCN32)(c2ccccc2)c2ccc(OC)cc2)cc1 [D-DNA G-DMF] : 2
3. COc1ccc(C(OCC2OC(n3cc(C)c(=O)[nH]c3=O)CC2OP2OC(c3ccccc3)C3CCCN32)(c2ccccc2)c2ccc(OC)cc2)cc1 [L-DNA T-DMF] : 1

----------
- Assay Protocol: Stability determination of amidite in solvent after 24 hours (HPLC-MS, UV 254 nm)
- Format: physicochemical
- Particulars: solvent MeCN; room temperature; grades 1-3, key not given
Readout Label: Stability at 24 hours

1) COc1ccc(C(OCC23COC(C(n4cc(C)c(=O)[nH]c4=O)O2)C3OP2OC(c3ccccc3)C3CCCN32)(c2ccccc2)c2ccc(OC)cc2)cc1 [L-LNA T-DMF] : 1
2) COc1ccc(C(OC[C@@]23CO[C@@H]([C@H](n4cnc5c(=O)[nH]c(NC(=O)C(C)C)nc54)O2)[C@@H]3O[P@]2O[C@H](c3ccccc3)[C@@H]3CCCN32)(c2ccccc2)c2ccc(OC)cc2)cc1 : 2
3) COc1ccc(C(OCC2OC(n3cc(C)c(=O)[nH]c3=O)CC2OP2OC(c3ccccc3)C3CCCN32)(c2ccccc2)c2ccc(OC)cc2)cc1 [L-DNA T-DMF] : 3

----------
- Assay Protocol: Stability determination of amidite in solvent after 24 hours (HPLC-MS, UV 254 nm)
- Type: physicochemical
- Particulars: solvent DMF; room temperature; grades 1-3, key not given
- Description: To a 1.5 mL vial was added 0.013 mmol of amidite after which the solid material was dissolved in 0.13 mL of solvent. Hereafter, the vial was capped, vortexed, and finally left at room temperature for 24 hours. […] The mass and UV peak of the mother compound was identified at 0 hours and at 24 hours. Hereafter, the relative stability compared to other by-products was reported by integrating the UV chromatogram (254 nm) and normalizing the area to the chromatogram recorded at 0 hours (FIG. 2).
Readout Label: Stability at 24 hours

1. COc1ccc(C(OCC2OC(n3cnc4c(=O)[nH]c(N=CN(C)C)nc43)CC2OP2OC(c3ccccc3)C3CCCN32)(c2ccccc2)c2ccc(OC)cc2)cc1 [L-DNA G-DMF] : 3
2. COc1ccc(C(OCC2OC(n3cc(C)c(=O)[nH]c3=O)CC2OP2OC(c3ccccc3)C3CCCN32)(c2ccccc2)c2ccc(OC)cc2)cc1 [L-DNA T-DMF] : 3
3. COc1ccc(C(OCC23COC(C(n4cc(C)c(=O)[nH]c4=O)O2)C3OP2OC(c3ccccc3)C3CCCN32)(c2ccccc2)c2ccc(OC)cc2)cc1 [D-LNA T-DMF] : 2
